# Test system: Fe-DA
# METHOD_SUMMARY: H2O2 assay, Fe-DA (% cf. Fe 0.4 μM/DA 50 μM)
# Format: biochemical
# ASSAY_CONDITIONS: Fe 0.4 μM/DA 50 μM
OBSERVATION_TYPE: Fe-DA % cf. Fe 0.4 μM/DA 50 μM (%)
Reply numerically in %, unit not repeated.

Use these answered entries as a reference point.
CCCNCc1nc2c(O)c(Cl)cc(Cl)c2c(=O)n1CC(C)C [Compound F4547]; 34
C#CCN(C)Cc1nc2c(O)c(Cl)cc(Cl)c2c(=O)n1CC [Compound F4392]; 72
CNCc1nc2c(O)c(Cl)cc(Cl)c2c(=O)n1CC(C)C [Compound F4544]; 164
CCCn1c(CN(CC)CC)nc2c(O)c(Cl)cc(Cl)c2c1=O [Compound F4541]; 107
C#CCN(C)Cc1nc2c(O)c(Cl)cc(Cl)c2c(=O)n1CC1CC1 [Compound F4387]; 77

Here is the next item to consider.
In: Give recorded Fe-DA % cf. Fe 0.4 μM/DA 50 μM. CCN1CCN(Cc2nc3c(O)c(Cl)cc(Cl)c3c(=O)n2CC2CC2)CC1 [Compound F4383]
Out: 81

---

# MEASURED_TARGET: CYP2D6 (Homo sapiens)
# Construct: using a specific substrate approach in human liver microsomes; from tissue; host or cells: human liver microsomes
# Sequence (P10635 whole entry): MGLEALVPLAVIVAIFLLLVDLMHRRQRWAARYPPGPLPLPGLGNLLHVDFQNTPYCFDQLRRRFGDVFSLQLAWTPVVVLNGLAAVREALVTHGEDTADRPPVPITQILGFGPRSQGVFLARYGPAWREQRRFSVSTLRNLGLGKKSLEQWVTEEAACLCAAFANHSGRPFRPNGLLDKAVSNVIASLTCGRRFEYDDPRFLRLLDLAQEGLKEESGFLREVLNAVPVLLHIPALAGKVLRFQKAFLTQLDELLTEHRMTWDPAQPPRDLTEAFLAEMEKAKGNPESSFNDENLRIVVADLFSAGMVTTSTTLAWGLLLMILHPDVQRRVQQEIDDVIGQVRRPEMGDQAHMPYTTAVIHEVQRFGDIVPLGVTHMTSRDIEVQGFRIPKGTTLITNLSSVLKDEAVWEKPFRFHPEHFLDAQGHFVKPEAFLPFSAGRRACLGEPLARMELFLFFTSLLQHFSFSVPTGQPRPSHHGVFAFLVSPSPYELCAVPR
# METHOD_SUMMARY: CYP450 inhibition, specific substrate approach in human liver microsomes: CYP2D6
# Assay type: in vitro ADME
OBSERVATION_TYPE: pIC50
Field pIC50 (float): negative decimal logarithm of the concentration in molar.

Use these answered entries as a reference point.
CN(C)Cc1nc2c(O)c(Cl)cc(Cl)c2c(=O)n1CC1CC1; 5.13
CCNCc1nc2c(O)c(Cl)cc(Cl)c2c(=O)n1CC; 5.02

Here is the next item to consider.
In: Give recorded pIC50. CCN(CC)Cc1nc2c(O)c(Cl)cc(Cl)c2c(=O)n1CC1CC1
Out: 5.29

---

# MEASURED_TARGET: CYP3A4 (Homo sapiens)
# Sequence (P08684 2-503): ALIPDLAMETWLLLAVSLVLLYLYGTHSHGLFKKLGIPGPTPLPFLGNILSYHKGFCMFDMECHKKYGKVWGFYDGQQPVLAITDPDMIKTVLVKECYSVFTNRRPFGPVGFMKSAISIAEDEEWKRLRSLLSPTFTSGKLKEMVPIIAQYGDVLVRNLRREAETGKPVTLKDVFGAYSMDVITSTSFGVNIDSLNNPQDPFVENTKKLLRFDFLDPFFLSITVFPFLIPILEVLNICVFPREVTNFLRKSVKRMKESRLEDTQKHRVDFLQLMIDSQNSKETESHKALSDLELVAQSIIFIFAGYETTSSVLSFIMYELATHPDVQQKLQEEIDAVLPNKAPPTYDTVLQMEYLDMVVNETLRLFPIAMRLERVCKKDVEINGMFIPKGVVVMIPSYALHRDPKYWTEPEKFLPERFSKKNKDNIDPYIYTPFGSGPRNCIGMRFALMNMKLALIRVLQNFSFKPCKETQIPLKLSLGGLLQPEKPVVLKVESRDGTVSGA
# METHOD_SUMMARY: CYP450 inhibition, specific substrate approach in human liver microsomes: CYP3A4
# Format: in vitro ADME
# Design: using a specific substrate approach in human liver microsomes; from tissue; host or cells: human liver microsomes
# ASSAY_CONDITIONS: midazolam, read-out: CYP3A4-Midazolam IC50
Entries annotated with measured pIC50
Field pIC50 (float): negative decimal logarithm of the concentration in molar.

Br.CCNCc1nc2c(O)c(Cl)cc(Cl)c2c(=O)n1C [Compound F4496]; 5.36

In: Give recorded pIC50. CCN(CC)Cc1nc2c(O)c(Cl)cc(Cl)c2c(=O)n1CC1CC1 [Compound F4385]
Out: 4.67

---

Entries annotated with measured solubility thermodynamic
# METHOD_SUMMARY: Equilibrium Solubility (pH 2-7)
# Assay type: physicochemical
# ASSAY_CONDITIONS: aqueous buffer, thermodynamic from solid

CCn1c(CN(C)C)nc2c(O)c(Cl)cc(Cl)c2c1=O.Cl; 3810 to 10200 µg/mL
Br.CCNCc1nc2c(O)c(Cl)cc(Cl)c2c(=O)n1C; 224 to 1500 µg/mL
CCNCc1nc2c(O)c(Cl)cc(Cl)c2c(=O)n1CC; 2230 to 4730 µg/mL
CCN(CC)Cc1nc2c(O)c(Cl)cc(Cl)c2c(=O)n1CC1CC1; 683 to 1660 µg/mL
CN(C)Cc1nc2c(O)c(Cl)cc(Cl)c2c(=O)n1CC1CC1; 393 to 1700 µg/mL

In: Give recorded solubility thermodynamic. CN(C)Cc1nc2c(O)c(Cl)cc(Cl)c2c(=O)n1C
Out: 166 to 2670 µg/mL

In: Give recorded solubility thermodynamic. CNCc1nc2c(O)c(Cl)cc(Cl)c2c(=O)n1C
Out: 196 to 746 µg/mL
